These data points were gathered from ChEMBL document CHEMBL1201862.

Tested on: SK-MEL-2
Experiment: NCI tumour cell line growth inhibition, 48 h
The source made the active and inactive calls. Cut-off read from the data, not from the text of the source: active = GI50 up to about 1.1 µM and inactive = higher. Starred links: 1 amine or outer side, 2 acyl side, 3 side chain; linkers in the order of their positions; H or OH if unused. Non-standard residues stand in square brackets, D forms with d. Residues, ends and D or L forms follow the SMILES beside them. *: point of attachment. X34 = CC(=O)N(C)SCC(N[*:1])C(=O)[*:2]; Cbz = O=C(OCc1ccccc1)*; Bn = c1ccc(C*)cc1; For = O=C*
Pick one: y = active, n = inactive

- Molecule: "O=C(O)c1ccc(C2C3C=CC(C3)C2[N+](=O)[O-])cc1 (configuration not stated)"
  Qualitative Label: "n"
- Molecule: "Cc1ccc(C2=Nc3c(c(C)nn3-c3ccccc3)N=C(C(=O)O)C2)cc1"
  Qualitative Label: "n"
- Molecule: "CC(=O)N(C)SCC(NC(=O)C(Cc1ccccc1)NC(=O)OCc1ccccc1)C(=O)NC(Cc1ccccc1)C(=O)NC(Cc1cn(C=O)c2ccccc12)C(=O)NC(CCCCNC(=O)OCc1ccccc1)C(=O)NC(C(=O)NC(CSN(C)C(C)=O)C(=O)NC(C(N)=O)C(C)OCc1ccccc1)C(C)OCc1ccccc1 (configuration not stated) (Cbz-F[X34]FW(For)K(Cbz)T(Bn)[X34]T(Bn)-NH2; configuration not given here)"
  Qualitative Label: "n"
- Molecule: "O=C1/C(=C/c2ccccc2)CCCc2ccccc21"
  Qualitative Label: "n"
- Molecule: "Nc1c(-c2cccc3ccccc23)c2ccc([N+](=O)[O-])cc2c(=O)n1-c1nc2ccccc2s1"
  Qualitative Label: "n"

Check the results log: what was the call for CSC(=S)N/N=C/c1ccccc1 ?
n
